B1: SLC35F2 (parent)
chain: QYLAERYKVNTPMLQSFINYCLLF

- Variants of: B1
- assay_details: protein stability index of a GFP-peptide fusion (GPS, HEK-293T) (PSI 1-6); higher = more stable;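 also: lentivirally expressed fusions sorted by FACS into six bins by GFP to DsRed ratio, PSI derived from sequencing read proportions per bin multiplied by bin number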
- condition_set: c terminus: a fixed tail appended
// false (0) strictly below 3 in protein stability index; true (1) otherwise

construct_sequence: QYLVERYKVNTPMLQSFINYCLLF [A4V]
assigned_label: true (1)

construct_sequence: QYLAERYKGNTPMLQSFINYCLLF [V9G]
assigned_label: false (0)

construct_sequence: QYLAEMYKVNTPMLQSFINYCLLF [R6M]
assigned_label: false (0)

construct_sequence: QYLAERYKLNTPMLQSFINYCLLF [V9L]
assigned_label: false (0)

construct_sequence: QYLAERYRVNTPMLQSFINYCLLF [K8R]
assigned_label: false (0)

construct_sequence: QYLAERYKVNTPMLQWFINYCLLF [S16W]
assigned_label: false (0)

construct_sequence: QYLAERYKVNTPMLQSFINMCLLF [Y20M]
assigned_label: false (0)

construct_sequence: QYLAERYKVNTNMLQSFINYCLLF [P12N]
assigned_label: false (0)

construct_sequence: QYLAEIYKVNTPMLQSFINYCLLF [R6I]
assigned_label: false (0)

construct_sequence: QYLCERYKVNTPMLQSFINYCLLF [A4C]
assigned_label: true (1)

construct_sequence: QYLAERYKVNTPMLQSFINYPLLF [C21P]
assigned_label: false (0)

construct_sequence: QYLAERYKVNTPMLWSFINYCLLF [Q15W]
assigned_label: false (0)

construct_sequence: QYLAERYPVNTPMLQSFINYCLLF [K8P]
assigned_label: false (0)

construct_sequence: QYLAERYFVNTPMLQSFINYCLLF [K8F]
assigned_label: true (1)

construct_sequence: QYLAERYKVNLPMLQSFINYCLLF [T11L]
assigned_label: false (0)

construct_sequence: QYLAERYKVNTPMLQKFINYCLLF [S16K]
assigned_label: false (0)

construct_sequence: QYVAERYKVNTPMLQSFINYCLLF [L3V]
assigned_label: false (0)

construct_sequence: QYLAERYKVNTPMCQSFINYCLLF [L14C]
assigned_label: false (0)

construct_sequence: QYLAERYKVNTPMLQSFENYCLLF [I18E]
assigned_label: false (0)

construct_sequence: QYEAERYKVNTPMLQSFINYCLLF [L3E]
assigned_label: false (0)

construct_sequence: QYLAERYKSNTPMLQSFINYCLLF [V9S]
assigned_label: false (0)

construct_sequence: QYLAERYKVNTPMLQSDINYCLLF [F17D]
assigned_label: false (0)

construct_sequence: QYLAERYNVNTPMLQSFINYCLLF [K8N]
assigned_label: false (0)

construct_sequence: QYLAERYKVNTPMLQCFINYCLLF [S16C]
assigned_label: false (0)

construct_sequence: QILAERYKVNTPMLQSFINYCLLF [Y2I]
assigned_label: false (0)

construct_sequence: QYLAERYKVNTPMLQSFINYCCLF [L22C]
assigned_label: false (0)

construct_sequence: QYLAERYKVNTPMLQSFINYCLRF [L23R]
assigned_label: false (0)

construct_sequence: QYLAELYKVNTPMLQSFINYCLLF [R6L]
assigned_label: false (0)

construct_sequence: QYLAERYKVCTPMLQSFINYCLLF [N10C]
assigned_label: false (0)

construct_sequence: QYLRERYKVNTPMLQSFINYCLLF [A4R]
assigned_label: false (0)

construct_sequence: QYLAERYKVNTPMLQSFINYCLQF [L23Q]
assigned_label: false (0)

construct_sequence: QYLAERYKVHTPMLQSFINYCLLF [N10H]
assigned_label: false (0)

construct_sequence: QYLAERYKVNTPMLQSFWNYCLLF [I18W]
assigned_label: false (0)

construct_sequence: QYLAERYKVNTPMLQSFINYKLLF [C21K]
assigned_label: true (1)

construct_sequence: QYLAERYKVNEPMLQSFINYCLLF [T11E]
assigned_label: false (0)

construct_sequence: QYLAERYKVNTPMLQSFINYCLGF [L23G]
assigned_label: false (0)

construct_sequence: QPLAERYKVNTPMLQSFINYCLLF [Y2P]
assigned_label: false (0)

construct_sequence: QYLAERYKVNTQMLQSFINYCLLF [P12Q]
assigned_label: false (0)

construct_sequence: QYLAERYKVNTPMLQSFINYCLLV [F24V]
assigned_label: true (1)

construct_sequence: QYLAERYKVNTPMLQSFINYCMLF [L22M]
assigned_label: false (0)

construct_sequence: CYLAERYKVNTPMLQSFINYCLLF [Q1C]
assigned_label: true (1)

construct_sequence: QYLAERYKVNTPMLQSFINYCLLS [F24S]
assigned_label: false (0)

construct_sequence: QYLAERYKVNTPFLQSFINYCLLF [M13F]
assigned_label: false (0)

construct_sequence: QYLAERYKVNTPTLQSFINYCLLF [M13T]
assigned_label: false (0)

construct_sequence: QYLAERYKVNTPMLQSAINYCLLF [F17A]
assigned_label: false (0)

construct_sequence: QYLAERDKVNTPMLQSFINYCLLF [Y7D]
assigned_label: false (0)

construct_sequence: QYLAERYKVNTPMLQSFIDYCLLF [N19D]
assigned_label: false (0)

construct_sequence: QYLAERYKVNTPMLQSFINTCLLF [Y20T]
assigned_label: false (0)

construct_sequence: QYLAERYKVNTPMLTSFINYCLLF [Q15T]
assigned_label: true (1)

construct_sequence: QYLAERYKVNTPMLQSFSNYCLLF [I18S]
assigned_label: false (0)

construct_sequence: QYLAGRYKVNTPMLQSFINYCLLF [E5G]
assigned_label: false (0)

construct_sequence: QYLAERYKVNTPMLQSFINYCLLI [F24I]
assigned_label: true (1)

construct_sequence: QYLAERYKVNTPMLQSFYNYCLLF [I18Y]
assigned_label: false (0)

construct_sequence: QYLAERYKVNTPMLQSEINYCLLF [F17E]
assigned_label: false (0)

construct_sequence: QYLAERYEVNTPMLQSFINYCLLF [K8E]
assigned_label: false (0)

construct_sequence: QYLAERYKVQTPMLQSFINYCLLF [N10Q]
assigned_label: false (0)

construct_sequence: QYLAERYKVNTPMLQSFINYCLLE [F24E]
assigned_label: false (0)

construct_sequence: QYLAERYKVNTPMLQSFIVYCLLF [N19V]
assigned_label: false (0)

construct_sequence: QYLAERYKVNTPMLQSFINYCLIF [L23I]
assigned_label: true (1)

construct_sequence: QYLAERYKVPTPMLQSFINYCLLF [N10P]
assigned_label: false (0)

construct_sequence: QYLAERYKVNTPMLQSFINICLLF [Y20I]
assigned_label: false (0)

construct_sequence: QYLAERYKYNTPMLQSFINYCLLF [V9Y]
assigned_label: false (0)

construct_sequence: QYLAERYKVNTPMLQSFINYFLLF [C21F]
assigned_label: false (0)

construct_sequence: QYLAERYKVNTPMMQSFINYCLLF [L14M]
assigned_label: true (1)

construct_sequence: QYLAERYKVNTPMLQSFINYCLHF [L23H]
assigned_label: false (0)

construct_sequence: QYLAERYKVNVPMLQSFINYCLLF [T11V]
assigned_label: false (0)

construct_sequence: QYLAEPYKVNTPMLQSFINYCLLF [R6P]
assigned_label: true (1)

construct_sequence: QYLAERQKVNTPMLQSFINYCLLF [Y7Q]
assigned_label: true (1)

construct_sequence: QVLAERYKVNTPMLQSFINYCLLF [Y2V]
assigned_label: false (0)

construct_sequence: QYMAERYKVNTPMLQSFINYCLLF [L3M]
assigned_label: false (0)

construct_sequence: QYLAERYKVNTPMLLSFINYCLLF [Q15L]
assigned_label: true (1)

construct_sequence: QYLAERYKVNDPMLQSFINYCLLF [T11D]
assigned_label: false (0)

construct_sequence: QYLAEWYKVNTPMLQSFINYCLLF [R6W]
assigned_label: false (0)

construct_sequence: QYLAERYKVNTPMLQSFINYCLLH [F24H]
assigned_label: false (0)

construct_sequence: QYLAERYKVNTPMIQSFINYCLLF [L14I]
assigned_label: false (0)

construct_sequence: QYLQERYKVNTPMLQSFINYCLLF [A4Q]
assigned_label: false (0)

construct_sequence: YYLAERYKVNTPMLQSFINYCLLF [Q1Y]
assigned_label: false (0)

construct_sequence: QYLAERYKVNTPMLQSFINECLLF [Y20E]
assigned_label: false (0)

construct_sequence: QYLAERYKVNTPMLQPFINYCLLF [S16P]
assigned_label: true (1)

construct_sequence: QYLAERYKVNTPMLQSFINYDLLF [C21D]
assigned_label: false (0)

construct_sequence: QYLAARYKVNTPMLQSFINYCLLF [E5A]
assigned_label: true (1)

construct_sequence: QYFAERYKVNTPMLQSFINYCLLF [L3F]
assigned_label: true (1)

construct_sequence: QYLAERYKVNTPMLQSRINYCLLF [F17R]
assigned_label: true (1)

construct_sequence: QYNAERYKVNTPMLQSFINYCLLF [L3N]
assigned_label: false (0)

construct_sequence: QYLAERYKVNTPMLQSFINYILLF [C21I]
assigned_label: false (0)

construct_sequence: QYLAERYKVNTPMLQSFINYCFLF [L22F]
assigned_label: true (1)

construct_sequence: QYLAVRYKVNTPMLQSFINYCLLF [E5V]
assigned_label: true (1)

Reference source for all entries: the supplement of paper PMC10567573
